target-desc: dCTP pyrophosphatase 1 (Homo sapiens)
Sequence (Q9H773 whole entry): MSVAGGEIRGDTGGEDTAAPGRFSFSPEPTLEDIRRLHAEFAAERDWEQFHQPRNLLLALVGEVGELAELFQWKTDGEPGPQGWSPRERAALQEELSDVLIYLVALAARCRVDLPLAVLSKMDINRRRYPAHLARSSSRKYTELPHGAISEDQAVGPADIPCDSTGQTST
IC50 less than 200 nM is True; IC50 greater than or equal to 200 nM is False.

>>> df
                                   compound  assigned_label
0  Cc1ccccc1[S+]([O-])C1CCN(c2ccc(C(=O)NCc3ccccc3)nn2)CC1 (centres undefined)           False
1  O=C(NCc1ccccc1)c1ccc(N2CCN(S(=O)(=O)c3ccccc3C(F)(F)F)CC2)nn1           False
2  C#CCNC(=O)c1ccc(N2CCN(S(=O)(=O)c3cccc(Cl)c3C)CC2)nn1            True
3  Cc1ccccc1S(=O)(=O)N1CCN(c2ccc(C(=O)NCc3cccs3)nn2)CC1            True
4  Cc1ccccc1S(=O)(=O)N1CCN(c2ccc(C(=O)NCc3ccccc3)nn2)CC1            True
5  Cc1ccccc1S(=O)(=O)N1CCN(c2ccc(C(=O)OCc3ccccc3)nn2)CC1            True
6  C#CCOC(=O)c1ccc(N2CCN(S(=O)(=O)c3ccccc3N3CCC(O)CC3)CC2)nn1            True
7  Cc1ccccc1S(=O)(=O)N1CCN(c2ccc(C(CO)(CO)CCc3ccc(F)cc3)nn2)CC1           False
8  O=C(NCc1ccccc1)c1ccc(N2CCN(C(=O)c3ccccc3C(F)(F)F)CC2)nn1           False
